Tested on: OVCAR-4 ovarian
Experiment Description: NCI-60 one-dose screen, 48 h (100 = growth as untreated, 0 = no growth, -100 = all killed)
Recorded Conditions: 10 µM unless noted
About 83,000 compounds went through this panel and 20% of them were active in at least one assay; those are over-represented in the sample as a whole.
Outcome: Satisfied for growth of at least 80%; Not satisfied for anything lower.

                                   compound  discrete_label
0  COc1cc(-c2nccc3[nH]c(-c4cccc5[nH]ccc45)nc23)cc(OC)c1OC   Not satisfied
1  C=C1C(=O)O[C@H]2[C@H]1CC/C(COC(=O)NCc1ccc(Cn3c(=O)sn(-c4ccccc4)c3=O)cc1)=C\CC[C@@]1(C)O[C@@H]21   Not satisfied
2  CCOC(=O)C1=C(c2ccccc2)N=C2N(c3ccccc3)N=C(C(C)=O)N2C1c1ccc(F)cc1 (stereo unspecified)       Satisfied
3  Cc1cccc(-c2nc(C(C)C)sc2-c2ccnc(NCCCNS(=O)(=O)c3ccc(Cl)cc3)c2)c1       Satisfied
4  C1CCC(N2CN3c4nonc4N4CN(C5CCCCC5)CN5c6nonc6N(C2)C3C45)CC1 (stereo unspecified)       Satisfied
5     Fc1ccc(/C=C/[C@@H]2C[C@@H](F)CCO2)cc1       Satisfied

----------
In this section, each of the molecules is paired with its reported growth.
Tested on: IGROV1 ovarian
Experiment Description: NCI-60 one-dose screen, 48 h (100 = growth as untreated, 0 = no growth, -100 = all killed)
Recorded Conditions: 10 µM unless noted
Compounds without any hit were thinned out: in the full panel of roughly 83,000, 20% have a hit.
Quantity Measured: growth (%)

>>> print(df.to_string())
                            substance_smiles  assayed_system  result_number
 0  CS(=O)(=O)Nc1cc(-c2ccc3ncnc(Nc4ccc5c(cnn5Cc5ccncc5)c4)c3c2)cnc1Cl  IGROV1 ovarian          0.593
 1  CSc1ccc2c3c(n(CCCn4ccnc4)c(=O)c2c1)-c1ccccc1C3=O  IGROV1 ovarian           58.9
 2  C#CCOc1ccc2nc(CCl)c(Cl)c(Nc3cccc(C(F)(F)F)c3)c2c1  IGROV1 ovarian           85.1
 3  O=C(Nc1nc(Cl)nc(Nc2ccc(N3CCOCC3=O)cc2)n1)c1ccc(Cl)s1  IGROV1 ovarian           72.6
 4  COC(=O)/C(CCC=C(C)C)=C1\[C@@H](OC(C)=O)C[C@@]2(C)[C@H]1C/C(=N/O)[C@H]1[C@@]3(C)CC/C(=N\O)[C@@H](C)[C@@H]3CC[C@@]12C  IGROV1 ovarian            100
 5                 Cc1cccc(N=Nc2cccc(C)c2)c1  IGROV1 ovarian            102
 6  Cn1cc(-c2nc3c(F)cc4[nH]ncc4c3c3c2CCCC3)c(C(F)(F)F)n1  IGROV1 ovarian             24
 7  Cc1cccc(NC(=O)Cn2cc(CN3CCN(c4ccnc5cc(Cl)ccc45)CC3)nn2)c1  IGROV1 ovarian           89.1
 8  COC(=O)c1sccc1-c1cc(O)c(C(=O)Nc2ccccc2)s1  IGROV1 ovarian             95
 9  Cn1cc(-c2nonc2-c2c[nH]c3ccccc23)c2cc(Br)ccc21  IGROV1 ovarian             43
10  COc1ccc(-c2nc3ccc(C)cc3c3c2c(=O)n(C)c(=O)n3C)cc1OC  IGROV1 ovarian            108
